target-system: T1, cyno SIRPα-Fc (cynomolgus)
T1 construct: a signal peptide may be part of the entry
protocol-details: BLI Octet, antigen-Fc on biosensor;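 also: antigen captured on the biosensor tip and then immersed in solutions of the test antibodies, which act as the analyte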
pKd: −log10 of the molar value.
observable: pKd

>  <binder>
SIRPAB-9 (antibody, human IgG1, kappa, V domains shown) VH: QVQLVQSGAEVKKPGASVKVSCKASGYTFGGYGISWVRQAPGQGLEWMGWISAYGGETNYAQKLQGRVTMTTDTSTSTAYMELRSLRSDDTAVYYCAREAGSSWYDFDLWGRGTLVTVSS VL: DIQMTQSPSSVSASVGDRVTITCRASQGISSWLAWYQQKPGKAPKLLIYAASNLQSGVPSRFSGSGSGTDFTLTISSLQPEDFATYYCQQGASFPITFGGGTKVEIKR

>  <observable>
pKd

>  <reported-value>
7.73

$$$$
>  <binder>
SIRPAB-10 (antibody, human IgG1, kappa, V domains shown) VH: QVQLVQSGAEVKKPGASVKVSCKASGYTFTGYPISWVRQAPGQGLEWMGWIYAYGGNTNYAQKLQGRVTMTTDTSTSTAYMELRSLRSDDTAVYYCAREAGSSWYDFDLWGRGTLVTVSS VL: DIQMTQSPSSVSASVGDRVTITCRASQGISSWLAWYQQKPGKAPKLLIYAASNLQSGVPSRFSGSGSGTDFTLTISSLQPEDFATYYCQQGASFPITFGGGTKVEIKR

>  <observable>
pKd

>  <reported-value>
8.31

$$$$
>  <binder>
SIRPAB-13 (antibody, human IgG1, kappa, V domains shown) VH: QVQLVQSGAEVKKPGASVKVSCKASGYTFHGYGISWVRQAPGQGLEWMGWISAYSGETNYAQKLQGRVTMTTDTSTSTAYMELRSLRSDDTAVYYCAREAGSSWYDFDLWGRGTLVTVSS VL: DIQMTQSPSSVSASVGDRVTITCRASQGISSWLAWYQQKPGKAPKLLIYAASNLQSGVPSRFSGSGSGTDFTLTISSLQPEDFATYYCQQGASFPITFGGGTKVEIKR

>  <observable>
pKd

>  <reported-value>
7.83

$$$$
>  <binder>
SIRPAB-7 (antibody, human IgG1, kappa, V domains shown) VH: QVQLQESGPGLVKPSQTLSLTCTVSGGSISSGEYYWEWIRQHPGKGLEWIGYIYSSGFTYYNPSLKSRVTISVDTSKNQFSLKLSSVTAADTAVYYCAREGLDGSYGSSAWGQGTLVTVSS VL: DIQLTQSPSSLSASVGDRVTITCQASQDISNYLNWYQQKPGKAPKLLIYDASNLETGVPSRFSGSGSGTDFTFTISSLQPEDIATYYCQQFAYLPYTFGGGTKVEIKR

>  <observable>
pKd

>  <reported-value>
8.34

$$$$
